Catalogue of molecules with associated pKi
Target: CYP2B6 (Homo sapiens, UniProt P20813)
Sequence (P20813 1-491): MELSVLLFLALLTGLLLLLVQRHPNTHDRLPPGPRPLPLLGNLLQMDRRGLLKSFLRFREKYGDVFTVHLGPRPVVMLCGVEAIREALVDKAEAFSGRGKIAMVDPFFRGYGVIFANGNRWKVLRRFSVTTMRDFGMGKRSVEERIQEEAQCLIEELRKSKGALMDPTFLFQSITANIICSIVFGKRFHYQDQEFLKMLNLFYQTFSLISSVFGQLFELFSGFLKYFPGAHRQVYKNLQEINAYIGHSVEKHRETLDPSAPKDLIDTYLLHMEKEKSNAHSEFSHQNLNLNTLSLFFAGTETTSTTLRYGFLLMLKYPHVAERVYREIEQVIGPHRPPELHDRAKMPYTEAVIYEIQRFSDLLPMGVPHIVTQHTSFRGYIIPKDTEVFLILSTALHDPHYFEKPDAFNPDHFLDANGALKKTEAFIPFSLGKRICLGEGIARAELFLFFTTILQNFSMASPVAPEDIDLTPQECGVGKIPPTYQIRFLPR
Experiment: Inhibition of CYP2B6 probe
Assay type: in vitro ADME
Settings: Ki,u, HLM; probe bupropion (CYP2B6); corrected for fu,inc
pKi: −log10 of the molar value.

molecule_smiles | pKi
C=C(C)[C@@H]1CCC(C)=C[C@H]1c1c(O)cc(CCCCC)cc1O | 6.66
CCCCCc1cc(O)c2c(c1)OC(C)(C)c1ccc(C)cc1-2 | 6.06

The reported measurements were obtained from paper PMC11022895.
